test system: L1210 leukemia ip in BDF1 mice, survival T/C; experiment: NCI In Vivo Anticancer Drug Screen. Data for tumor model L1210 Leukemia (intraperitoneal) in B6D2F1 (BDF1) mice; conditions: endpoint: mean survival time; dose: 400.0 mg/kg/injection; schedule: Q04DX003 (ip); vehicle: saline with Tween-80; higher = longer survival
Toxic doses and inconclusive results are not listed.
test-readout: T/C

[[record]]
structure_as_smiles = "CCOC(=O)CCCCN(C(=O)OCc1ccccc1)N(C)C(=O)OCc1ccccc1"
test_readout = "T/C"
result = "97 % of control"

[[record]]
structure_as_smiles = "CC(C)NC(=O)Nc1cccc(O)c1"
test_readout = "T/C"
result = "89 % of control"

[[record]]
structure_as_smiles = "COc1cc(OC)cc(C2N(Cc3ccc(OC)c(OC)c3)CCN2Cc2ccc(OC)c(OC)c2)c1"
test_readout = "T/C"
result = "98 % of control"

[[record]]
structure_as_smiles = "COc1cc(Br)c(CCBr)cc1OC"
test_readout = "T/C"
result = "104 % of control"

[[record]]
structure_as_smiles = "COC(=O)CCC(=O)c1cccc(C)c1"
test_readout = "T/C"
result = "94 % of control"

[[record]]
structure_as_smiles = "C=CS(=O)(=O)c1ccccc1"
test_readout = "T/C"
result = "95 % of control"

[[record]]
structure_as_smiles = "C(CC1CCCCC1)=C(CCC1CCCCC1)CCC1CCCCC1"
test_readout = "T/C"
result = "100 % of control"

